Every entry's value here was drawn from paper PMC11279897.

Biological target: alpha-glucosidase enzyme
Experiment: Inhibition of alpha-glucosidase assay (PNPG substrate, 96-well plate)
Settings: enzyme from Saccharomyces cerevisiae
PARAMETER MEASURED: pIC50
pIC50 (log units): -log10 of the concentration in mol/L.

Let me know recorded pIC50 for C=C(C)[C@@H]1CC[C@]2(C)CC[C@]3(C)[C@H](CC[C@@H]4[C@@]5(C)CCC(=O)C(C)(C)[C@@H]5CC[C@]43C)[C@@H]12 , thanks.
6.14

Let me know recorded pIC50 for C=C(C)[C@@H]1CC[C@]2(C)CC[C@]3(C)[C@H](CC[C@@H]4[C@@]5(C)CC[C@H](O)C(C)(C)[C@@H]5CC[C@]43C)[C@@H]12 , thanks.
5.98

Let me know recorded pIC50 for C[C@H]1[C@H](C)CC[C@]2(C)CC[C@]3(C)C(=CC[C@@H]4[C@@]5(C)CC[C@H](O)C(C)(C)[C@@H]5CC[C@]43C)[C@H]12 , thanks.
5.67

Let me know recorded pIC50 for CC[C@H](CC[C@@H](C)[C@H]1CC[C@H]2[C@@H]3CC=C4C[C@@H](O)CC[C@]4(C)[C@H]3CC[C@]12C)C(C)C , thanks.
4.73

Let me know recorded pIC50 for CC[C@H](/C=C/[C@@H](C)[C@H]1CC[C@H]2[C@@H]3CC=C4C[C@@H](O)CC[C@]4(C)[C@H]3CC[C@]12C)C(C)C , thanks.
3.79

Let me know recorded pIC50 for CC1(C)CC[C@]2(C)CC[C@]3(C)C(=CC[C@@H]4[C@@]5(C)CC[C@H](O)C(C)(C)[C@@H]5CC[C@]43C)[C@@H]2C1 , thanks.
5.91

Let me know recorded pIC50 for CCCCCCCCCCCCCCCC(=O)O , thanks.
3.62
